Target: purified DHFR of strain Sp1/1 of Streptococcus pneumoniae (Streptococcus pneumoniae serotype 4, UniProt Q54801)
Format: biochemical
Conditions: Table 2; IC50 against purified DHFR of strain Sp1/1
pIC50: −log10 of the molar value.
Rule: pIC50 under 8 gives condition not met, otherwise condition met.

molecule=CCOc1cc(Cc2cnc(N)nc2N)cc(OCC)c1-c1ccc(CN2CCC(=O)N2)cc1 labelclass="condition not met"
molecule=CCOc1cc(Cc2cnc(N)nc2N)cc(OS(=O)(=O)CC2CC2)c1-c1cccc(N)c1 labelclass="condition met"
molecule=CCOc1cc(Cc2cnc(N)nc2N)cc(OCC2CCC2)c1-c1ccc(O)cc1 labelclass="condition not met"
molecule=CCOc1cc(Cc2cnc(N)nc2N)cc(OS(=O)(=O)N2CCCC2)c1-c1ccc(N)cc1 labelclass="condition met"
molecule=CCOc1cc(Cc2cnc(N)nc2N)cc(OS(=O)(=O)CC(C)(C)C)c1-c1ccc(NCCO)cc1 labelclass="condition met"
molecule=CCOc1cc(Cc2cnc(N)nc2N)cc(OS(=O)(=O)CC(C)(C)C)c1-c1ccc(N)cc1 labelclass="condition met"
molecule=CCOc1cc(Cc2cnc(N)nc2N)cc(OS(=O)(=O)c2cccs2)c1-c1cccc(N)c1 labelclass="condition met"
molecule=CCOc1cc(Cc2cnc(N)nc2N)cc(OS(=O)(=O)C2CCC2)c1-c1ccc(N)c(F)c1 labelclass="condition not met"
molecule=CCOc1cc(Cc2cnc(N)nc2N)cc(OCC(C)(C)CCC#N)c1-c1ccc(O)cc1 labelclass="condition not met"
molecule="CCOc1cc(Cc2cnc(N)nc2N)cc(OCC)c1-c1ccc(N2CC(COC)OC2=O)cc1 (racemic)" labelclass="condition not met"

Can CCOc1cc(Cc2cnc(N)nc2N)cc(OS(=O)(=O)N(C)C)c1-c1ccc(N)cc1 be said to have pIC50 at or above 8?
condition met

Can CCOc1cc(Cc2cnc(N)nc2N)cc(OCC)c1-c1ccc(NC(C)=O)c(C)c1 be said to have pIC50 at or above 8?
condition not met

Can CCOc1cc(Cc2cnc(N)nc2N)cc(OCC)c1-c1ccc(OC)cc1 be said to have pIC50 at or above 8?
condition not met

Can CCOc1cc(Cc2cnc(N)nc2N)cc(OS(=O)(=O)CC(C)(C)OC)c1-c1ccc(CN2CCOCC2)c(N)c1 be said to have pIC50 at or above 8?
condition met

Can CCOc1cc(Cc2cnc(N)nc2N)cc(OCC)c1-c1ccc(C)c(N)c1 be said to have pIC50 at or above 8?
condition not met

Can CCOc1cc(Cc2cnc(N)nc2N)cc(OCC)c1-c1ccc(O)c(F)c1 be said to have pIC50 at or above 8?
condition not met

Can CCOc1cc(Cc2cnc(N)nc2N)cc(OC2CCCC2COC)c1-c1ccc(O)cc1 (racemic) be said to have pIC50 at or above 8?
condition not met

Can CCOc1cc(Cc2cnc(N)nc2N)cc(OS(=O)(=O)N2CCCC2)c1-c1ccc(NC)cc1 be said to have pIC50 at or above 8?
condition met

Can CCOc1cc(Cc2cnc(N)nc2N)cc(OS(=O)(=O)C2CC2)c1-c1ccc(N)c(C)c1 be said to have pIC50 at or above 8?
condition met

Can CCOc1cc(Cc2cnc(N)nc2N)cc(OS(=O)(=O)N(CC)CC)c1-c1cccc(N)c1 be said to have pIC50 at or above 8?
condition met

Can CCOc1cc(Cc2cnc(N)nc2N)cc(OCC)c1-c1cc(C)cc(N)c1 be said to have pIC50 at or above 8?
condition not met

Can CCOc1cc(Cc2cnc(N)nc2N)cc(OCC)c1-c1ccc(CN(C)CCF)cc1 be said to have pIC50 at or above 8?
condition not met

Can CCOc1cc(Cc2cnc(N)nc2N)cc(OC2CCCC2)c1-c1ccc2c(c1)OCO2 be said to have pIC50 at or above 8?
condition not met

Can CCOc1cc(Cc2cnc(N)nc2N)cc(OS(=O)(=O)CC(C)(C)C)c1-c1ccc(N)c(F)c1 be said to have pIC50 at or above 8?
condition met

###

Test system: Staphylococcus aureus 101
Assay: MIC against Staphylococcus aureus 101
Type: cell-based
Details: Table 2; Staphylococcus aureus 101, MRSA- and trimethoprim-resistant; clinical isolate; read-out: MIC Sa101
quantityMeasured: MIC (µg/mL)
Give bare numbers, in µg/mL.

Illustrative cases are given below, each with its answer.
substancesmiles=CCOc1cc(Cc2cnc(N)nc2N)cc(OS(=O)(=O)N(C)C2CC2)c1-c1ccc(CN2CCOCC2)c(N)c1 resultnumber=2
substancesmiles=CCOc1cc(Cc2cnc(N)nc2N)cc(OS(=O)(=O)N(C)C2CC2)c1-c1cccc(N)c1 resultnumber=1
substancesmiles=CCOc1cc(Cc2cnc(N)nc2N)cc(OS(=O)(=O)N(C)C2CC2)c1-c1ccc(O)cc1 resultnumber=1

Note: attention shifts to another entry.
Which MIC value is on record for CCOc1cc(Cc2cnc(N)nc2N)cc(OCCC2CCOCC2)c1-c1cccc(N)c1 ?
8

###

Consider the following molecules; for each one, report its pIC50.
Target: purified DHFR of strain Sp1/1 of Streptococcus pneumoniae (Streptococcus pneumoniae serotype 4)
Sequence (Q54801 1-168 I100L): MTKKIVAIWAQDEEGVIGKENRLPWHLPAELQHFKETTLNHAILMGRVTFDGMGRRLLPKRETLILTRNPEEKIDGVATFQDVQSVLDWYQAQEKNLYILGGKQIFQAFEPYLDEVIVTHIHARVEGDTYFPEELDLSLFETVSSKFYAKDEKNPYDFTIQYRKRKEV
Assay type: biochemical
Conditions: Table 2; IC50 against purified DHFR of strain Sp1/1
Give bare numbers, as −log10 of the molar value.

Illustrative cases are given below, each with its answer.
molecule=CCOc1cc(Cc2cnc(N)nc2N)cc(OS(=O)(=O)N2CCCC2)c1-c1ccc(O)cc1 quantitymeasured=pIC50 resultnumber=8.09
molecule=CCCS(=O)(=O)Oc1cc(Cc2cnc(N)nc2N)cc(OCC)c1-c1cc(N)cc(F)c1 quantitymeasured=pIC50 resultnumber=7.52
molecule=CCOc1cc(Cc2cnc(N)nc2N)cc(OS(=O)(=O)N(C)C2CC2)c1-c1ccc(N)c(F)c1 quantitymeasured=pIC50 resultnumber=7.74
molecule=CCOc1cc(Cc2cnc(N)nc2N)cc(OS(=O)(=O)C2CCC2)c1-c1ccc(CN2CCOCC2)c(N)c1 quantitymeasured=pIC50 resultnumber=7.77
molecule="CCOc1cc(Cc2cnc(N)nc2N)cc(OS(=O)C(C)(C)C)c1-c1ccc(O)cc1 (stereo not shown)" quantitymeasured=pIC50 resultnumber=7.66

Please give pIC50 for each item listed below.
1. CCOc1cc(Cc2cnc(N)nc2N)cc(OCCC2CC2)c1-c1ccc(O)cc1
2. CCOc1cc(Cc2cnc(N)nc2N)cc(OC2CCC(C#N)C2)c1-c1ccc(O)cc1 (stereo not shown)
3. CCOc1cc(Cc2cnc(N)nc2N)cc(OS(=O)(=O)C2CCOCC2)c1-c1ccc(N)c(C)c1

[7.24, 7.60, 9.52]

###

Target: purified DHFR of strain Sp1/1 of Streptococcus pneumoniae (Streptococcus pneumoniae serotype 4, UniProt Q54801)
Sequence (Q54801 1-168 I100L): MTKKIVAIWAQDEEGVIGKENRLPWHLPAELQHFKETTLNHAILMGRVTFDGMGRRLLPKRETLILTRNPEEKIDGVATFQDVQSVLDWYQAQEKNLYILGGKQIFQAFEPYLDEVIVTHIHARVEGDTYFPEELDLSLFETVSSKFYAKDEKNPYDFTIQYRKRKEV
Assay type: biochemical
Conditions: Table 2; IC50 against purified DHFR of strain Sp1/1
Consider the following compounds; for each one, report its IC50.
The reply should consist of the numeric value with the unit placed after it.

compound=CCOc1cc(Cc2cnc(N)nc2N)cc(OCC(F)(F)F)c1-c1cccc(N)c1 quantitymeasured=IC50 result="28 nM"
compound=CCOc1cc(Cc2cnc(N)nc2N)cc(OS(=O)(=O)CC(C)C)c1-c1ccc(N)c(C)c1 quantitymeasured=IC50 result="3.3 nM"
compound=CCOc1cc(Cc2cnc(N)nc2N)cc(OCC)c1-c1ccc(C)cc1 quantitymeasured=IC50 result="79 nM"
compound=CCOc1cc(Cc2cnc(N)nc2N)cc(OCC)c1-c1ccc2cc(O)ccc2c1 quantitymeasured=IC50 result="28 nM"
compound=CCOc1cc(Cc2cnc(N)nc2N)cc(OS(=O)(=O)C2CC2)c1-c1cccc(N)c1 quantitymeasured=IC50 result="9.2 nM"
compound=CCOc1cc(Cc2cnc(N)nc2N)cc(OCC)c1-c1ccc(CN2CCCC2)cc1 quantitymeasured=IC50 result="92 nM"
compound=CCOc1cc(Cc2cnc(N)nc2N)cc(OS(=O)(=O)N(C)C)c1-c1ccc(O)cc1 quantitymeasured=IC50 result="7.5 nM"
compound=CCOc1cc(Cc2cnc(N)nc2N)cc(OS(=O)(=O)N(C)C)c1-c1ccc(CN(C)CCF)cc1 quantitymeasured=IC50 result="52 nM"
compound=CCOc1cc(Cc2cnc(N)nc2N)cc(OCC(C)(C)COC)c1-c1ccc(OC)cc1 quantitymeasured=IC50 result="90 nM"
compound=CCOc1cc(Cc2cnc(N)nc2N)cc(OS(=O)(=O)CC(C)C)c1-c1ccc(N)c(F)c1 quantitymeasured=IC50 result="5.8 nM"

Please give IC50 for each item listed below.
1. CCOc1cc(Cc2cnc(N)nc2N)cc(OS(=O)(=O)C(C)CC)c1-c1ccc(OC)c(N)c1 (centres unmarked)
2. CCOc1cc(Cc2cnc(N)nc2N)cc(OCC(C)(C)COC)c1-c1ccc(O)cc1
3. CCOc1cc(Cc2cnc(N)nc2N)cc(OS(=O)(=O)CC)c1-c1ccc(O)cc1

1. 4.3 nM
2. 18 nM
3. 23 nM

Please give IC50 for each item listed below.
1. CCOc1cc(Cc2cnc(N)nc2N)cc(OC(C)C)c1-c1ccc(O)cc1
2. CCCOc1cc(Cc2cnc(N)nc2N)cc(OCC)c1-c1cccc(O)c1
3. CCOc1cc(Cc2cnc(N)nc2N)cc(OCC2(C)CC2)c1-c1ccc(O)cc1
4. CCOc1cc(Cc2cnc(N)nc2N)cc(OS(=O)(=O)N(CC)CC)c1-c1ccc(N)cc1

65 nM
28 nM
51 nM
14 nM
